- experimental_target: Gal(b1-4)GlcNAc(b1-2)[Gal(b1-4)GlcNAc(b1-4)]Man(a1-3)[Gal(b1-4)GlcNAc(b1-2)Man(a1-6)]Man(b1-4)GlcNAc(b1-4)GlcNAc
- assay_info: glycan array binding signal (z-score within array); higher = stronger binding
- details: glycan notation: IUPAC condensed, linker removed
About 410 targets per protein were measured; listed, in parts, are those with the strongest signals and a random draw of the rest.
endpoint_name: glycan array binding signal (z-score)

{"columns": ["binder", "observed_measurement"],
 "data": [
  ["DGL (Dioclea grandiflora), P08902 (protein) ADTIVAVELDSYPNTDIGDPNYPHIGIDIKSIRSKSTARWNMQTGKVGTVHISYNSVAKRLSAVVSYSGSSSTTVSYDVDLNNVLPEWVRVGLSATTGLYKETNTILSWSFTSKLKTNSIADENSLHFSFHKFSQNPKDLILQGDAFTDSDGNLELTKVSSSGDPQGNSVGRALFYAPVHIWESSAVVASFDATFTFLIKSPDREPADGITFFIANTDTSIPSGSGGRLLGLFPDAN", -0.161],
  ["Cohesin-marm-DC-ASGPR-CRD (protein) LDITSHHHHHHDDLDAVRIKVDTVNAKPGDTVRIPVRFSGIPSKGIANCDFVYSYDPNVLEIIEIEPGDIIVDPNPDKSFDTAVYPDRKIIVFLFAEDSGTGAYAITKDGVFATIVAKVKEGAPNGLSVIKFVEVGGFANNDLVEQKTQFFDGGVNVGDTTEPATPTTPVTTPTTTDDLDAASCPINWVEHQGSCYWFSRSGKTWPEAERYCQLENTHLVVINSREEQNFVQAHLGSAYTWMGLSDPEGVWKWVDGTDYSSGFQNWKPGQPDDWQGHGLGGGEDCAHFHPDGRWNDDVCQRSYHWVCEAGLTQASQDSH", -0.44],
  ["MPA (Maclura pomifera), P18674 (protein) GVTFDDGAYTGIREINFEYNSETAIGGLRVTYDLNGMPFVAEDHKSFITGFKPVKISLEFPSEYIVEVSGYVGKVEGYTVIRSLTFKTNKQTYGPYGVTNGTPFSLPIENGLIVGFKGSIGYWLDYFSIYLSL", -0.046],
  ["Mermaid1 (Stilbonema majum) (protein) MGSSHHHHHHSSGLVPRGSHMAASGWLRSPQGTVVKLYRRSLSWSKADEFCKDVDGRLVVDRTADMHLFLIKNVLKEKKSRVWVGLRRTAPHSRTWIWSDGTRQNEDDLDANLWLRDEPNDAAGEEECALFMYSPWEKAWGLNDYLCRGGCRSYQFICEKWIR", 0.823],
  ["PNA (Arachis hypogaea), P02872 (protein) MKPFCVFLTFFLLLAASSKKVDSAETVSFNFNSFSEGNPAINFQGDVTVLSNGNIQLTNLNKVNSVGRVLYAMPVRIWSSATGNVASFLTSFSFEMKDIKDYDPADGIIFFIAPEDTQIPAGSIGGGTLGVSDTKGAGHFVGVEFDTYSNSEYNDPPTDHVGIDVNSVDSVKTVPWNSVSGAVVKVTVIYDSSTKTLSVAVTNDNGDITTIAQVVDLKAKLPERVKFGFSASGSLGGRQIHLIRSWSFTSTLITTTRRSIDNNEKKIMNMASA", -0.118],
  ["Dectin2 (Homo sapiens), Q6EIG7 (protein) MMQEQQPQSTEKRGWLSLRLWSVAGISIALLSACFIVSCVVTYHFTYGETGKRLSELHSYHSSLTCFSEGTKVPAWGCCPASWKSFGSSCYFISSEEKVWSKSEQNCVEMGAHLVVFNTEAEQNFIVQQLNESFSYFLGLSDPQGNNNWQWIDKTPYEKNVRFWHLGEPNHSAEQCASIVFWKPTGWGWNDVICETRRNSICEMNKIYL", 0.09],
  ["Gal 1 (Canis lupus) (protein) MACGLVASNLSLKPGQCLRVQCEVVPEAKSFVLNLGKDGDNLCLHFNPRFEAHGDVNTIVCNSKDGGAWGEELRESAFPFQPGTVTEVCISFDQADLTIKLPDGYTFKFPNRLNLEAISYLAADGDMKIKCLAFD", 5.5],
  ["rCnSL-A (Clitocybe nebularis) (protein) VNPNLPGPNDVFVGFRGTNNIVGAIYEKDGIKDTPLNNGADAEMGPGSYITDGLFTARIFASGSAGNNPGTTATVCKIYASGVQWRGAPKGYIPVAYFGNGPTAEQRRQTYLRTLGLPGTAIRFGNLNTNPGQGPTAPRQMVVPPGPLRSLLKASCFPAADTRLPQTLHYFEKRVDWNIITAADSQTWGH", 2.67],
  ["EEA (Euonymus europaeus) (protein) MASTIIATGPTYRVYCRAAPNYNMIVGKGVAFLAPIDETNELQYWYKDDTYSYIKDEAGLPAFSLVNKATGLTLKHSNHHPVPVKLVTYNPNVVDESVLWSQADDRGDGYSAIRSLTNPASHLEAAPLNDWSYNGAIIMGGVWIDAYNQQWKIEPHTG", -0.173],
  ["TAL6-4LysM (Trichoderma atroviride) (protein) AADSIPSISPTGIITPTPTQSGMVSNCNKFYDVHSNDGCSAIASSQHVDLSSLYKWNPAIKTDCSGLQASVYVCIGILTTSMSTTSKLPTTTSKPSTTSKPPTGITTPTPTQSGMVKNCNKFYDVHSGDGCSAIASSQKVNLSSFYLWNPAVKTDCSGLQASVFVCIGTLTTSMSTTTSKLPTTTSKPSTTSKPPTGIITPTPTQNGMVKNCNKFYDVHSGDGCSAIASSQKVNLSSFYLWNPAVKTDCSGLQASVFVCVGTATTTTAAGITTPTPTQSGMVSGCNKFYDVHAGDGCSAIASSQKIALSSLYKWNPAVKTDCSGLQASVYICIGVGNAAAARVTGALEQKLISEEDLNSAVDHHHHHH", 3.53],
  ["cFel (Cyprinus carpio), P68512 (protein) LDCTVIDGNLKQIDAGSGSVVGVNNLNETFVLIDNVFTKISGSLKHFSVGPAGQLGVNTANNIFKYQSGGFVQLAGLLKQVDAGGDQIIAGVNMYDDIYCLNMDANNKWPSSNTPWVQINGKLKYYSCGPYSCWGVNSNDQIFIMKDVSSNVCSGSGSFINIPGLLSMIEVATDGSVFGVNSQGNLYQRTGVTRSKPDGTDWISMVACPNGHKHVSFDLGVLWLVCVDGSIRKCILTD", 3.29]
]}
